These entries and their values trace back to PubChem BioAssay AID1159580.

assay: chemical genetic growth profiling, strain panel (AID 1159580);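 also: tested at 20 µM; growth read once vehicle control cultures reached saturation at 30 °C; lower values mean less growth of the strain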; conditions: S. cerevisiae deletion strains, growth OD, locus YOR270C, strain vph1
Screen size: about 5,500 compounds; about 2,000 (36%) were called active. About 18% were inconclusive and are not listed. Rule as the data show it: active = normalized growth mostly below about 0.91 (no sharp cut-off); inconclusive = no clear call, values can overlap the other calls; inactive = mostly above about 0.92. The list shows a part of the results. Where a SMILES comes first, the peptide text is derived from it. Side-chain parts run from the residue outwards. [ ]: non-standard residue; d: D form. The star is where a group is joined. X1 = CCC(C)C(N)C1=NC(C(=O)*)CS1; Orn = NCCC[CH](N)C(=O)O
Tick one outcome: Yes = active, No = inactive

Sample answers from the record:
CCc1cccc2c3c([nH]c12)C(CC)(CC(=O)O)OCC3 (configuration not stated)	No
CCC(C)C(N)C1=NC(C(=O)NC(CC(C)C)C(=O)NC(CCC(=O)O)C(=O)NC(C(=O)NCCCCC2NC(=O)C(CC(N)=O)NC(=O)C(CC(=O)O)NC(=O)C(Cc3cnc[nH]3)NC(=O)C(Cc3ccccc3)NC(=O)C(C(C)CC)NC(=O)C(CCCN)NC2=O)C(C)CC)CS1 (stereo not drawn) (cyclo(DNK([Ile-Glu-Leu-X1])[Orn]IFH); configuration not given here)	No
CC[C@H]1CN2CCc3cc(OC)c(OC)cc3C2C[C@@H]1CC1NCCc2cc(OC)c(OC)cc21 (some centres not stated)	No
CC(=O)CC1CCCCN1 (configuration not stated)	No
CC1=NN(c2ccccc2)C(=O)C1	No
COC(=O)[C@]1(C)CC[C@]2(C)CC[C@]3(C)C4=CC=C5C(=CC(=O)C(O)=C5C)[C@]4(C)CC[C@@]3(C)[C@@H]2C1	Yes
COc1ccc2c(=O)ccoc2c1	No
CC(C)CC1NC(=O)C(CCCN)NC(=O)C(C(C)C)NC(=O)C2CCCN2C(=O)C(Cc2ccccc2)NC(=O)C(CC(C)C)NC(=O)C(CCCN)NC(=O)C(C(C)C)NC(=O)C2CCCN2C(=O)C(Cc2ccccc2)NC1=O (configuration not stated) (cyclo(FPV[Orn]LFPV[Orn]L); configuration not given here)	Yes

Exam item: How did this test come out for COc1c2ccoc2cc2oc(C)cc(=O)c12 ?
Marked response: No
